System: Plasmodium berghei
experimental-protocol: Antimalarial activity against Plasmodium berghei infected in mouse assessed as increase of survival time of host at 640 mg/kg
Type: functional, organism-based
Parameters: dose 640 mg/kg
Calls of active or inactive are those of the source. The rule behind the calls is not given here. Peptide text beside a SMILES is read from it.
Return exactly one item of YES (active), NO (inactive)

Please review the entries below; each comes with its answer.
molecule	study-system	label-class
CC(C)C[C@H](N)C(=O)O [LEUCINE]	Plasmodium berghei	NO
CO[C@H](C)[C@H](N)C(=O)N[C@@H](CC(C)C)C(=O)O (H-Thr(Me)-Leu-OH)	Plasmodium berghei	NO
CO[C@H](C)[C@H](N)C(=O)N[C@H](C(=O)O)[C@@H](C)OC (H-Thr(Me)-Thr(Me)-OH)	Plasmodium berghei	YES

With those in mind, consider the next molecule.
Asked: I would be grateful if you could indicate the recorded call for CO[C@H](C)[C@H](NC(=O)[C@@H](N)CC(C)C)C(=O)O (H-Leu-Thr(Me)-OH) .
Given back: NO

Taken from ChEMBL document CHEMBL3244112.
